biological target: Human HPK1, catalytic domain (Homo sapiens, UniProt Q92918); construct: purchased Carna; assay: HPK1-SLP76 TR-FRET assay; assay type: biochemical; conditions: 75 pM HPK1, 10 uM ATP, 10 nM SLP76, 30 min compound pre-incubation
quantity: IC50 (nM)
// units = nM; emit number, no label

Q. I'm curious: which IC50 was measured for COc1cc2c(cc1Nc1ncc(C(N)=O)c(Nc3cccc(CCO)c3)n1)CNCC2 tested on Human HPK1, catalytic domain (Homo sapiens, UniProt Q92918)?
A. 0.99

Q. I'm curious: which IC50 was measured for COc1cc2c(cc1Nc1ncc(C(N)=O)c(Nc3ccccc3Br)n1)CN(CC(F)F)CC2 tested on Human HPK1, catalytic domain (Homo sapiens, UniProt Q92918)?
A. 28.9

Q. I'm curious: which IC50 was measured for NC(=O)c1cnc(Nc2cc3n(n2)CCC3)nc1Nc1cccc2c1CCNC2=O tested on Human HPK1, catalytic domain (Homo sapiens, UniProt Q92918)?
A. 3.65

Q. I'm curious: which IC50 was measured for COc1cc2c(cc1Nc1ncc(C(N)=O)c(Nc3cccc(C)c3F)n1)CN(C)CC2 tested on Human HPK1, catalytic domain (Homo sapiens, UniProt Q92918)?
A. 0.18

Q. I'm curious: which IC50 was measured for Cc1ccc(C)c(Nc2ncc(C(N)=O)c(Nc3cccc4c3CCNC4=O)n2)c1 tested on Human HPK1, catalytic domain (Homo sapiens, UniProt Q92918)?
A. 169

Q. I'm curious: which IC50 was measured for COc1cc2c(cc1Nc1ncc(C(N)=O)c(Nc3ccccc3CC3CCOCC3)n1)CN(C)CC2 tested on Human HPK1, catalytic domain (Homo sapiens, UniProt Q92918)?
A. 0.92

Q. I'm curious: which IC50 was measured for COc1cc2c(cc1Nc1ncc(C(N)=O)c(Nc3cccc(Cl)c3)n1)CN(C)CC2 tested on Human HPK1, catalytic domain (Homo sapiens, UniProt Q92918)?
A. 1.04

Q. I'm curious: which IC50 was measured for COc1cc2c(cc1Nc1ncc(C(N)=O)c(Nc3cccc(C4(C#N)CC4)c3)n1)CN(C)CC2 tested on Human HPK1, catalytic domain (Homo sapiens, UniProt Q92918)?
A. 0.41

---

Assign pIC50 to each entry below.
Molecular target: Human HPK1, catalytic domain (Homo sapiens, UniProt Q92918)
Sequence (Q92918 1-346): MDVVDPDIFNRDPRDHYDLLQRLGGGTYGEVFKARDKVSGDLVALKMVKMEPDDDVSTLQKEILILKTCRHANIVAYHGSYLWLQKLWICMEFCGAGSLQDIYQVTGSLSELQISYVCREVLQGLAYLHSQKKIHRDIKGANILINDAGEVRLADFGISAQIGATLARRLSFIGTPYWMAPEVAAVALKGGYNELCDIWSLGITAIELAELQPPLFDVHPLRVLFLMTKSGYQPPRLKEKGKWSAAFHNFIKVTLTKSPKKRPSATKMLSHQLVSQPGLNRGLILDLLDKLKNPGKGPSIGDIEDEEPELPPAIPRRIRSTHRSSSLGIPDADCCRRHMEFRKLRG
Reminder that pIC50 is minus the log10 of a molar concentration.

Q. Item COc1cc2c(cc1Nc1ncc(C(N)=O)c(Nc3ccccc3-c3nccs3)n1)CN(C)CC2 has what recorded pIC50?
A. 9.59

Q. Item CCOc1ccccc1CNc1nc(Nc2cc3c(cc2OC)CCN(C)C3)ncc1C(N)=O has what recorded pIC50?
A. 8.43

Q. Item COc1cc2c(cc1Nc1ncc(C(N)=O)c(NCc3cccc(C(F)(F)F)c3)n1)CN(C)CC2 has what recorded pIC50?
A. 7.28

Q. Item NC(=O)c1cnc(Nc2ccc(OC(F)F)c(Cl)c2)nc1Nc1cccc2c1CCNC2=O has what recorded pIC50?
A. 7.35

Q. Item COCCOCCOCCCN1CCc2cc(OC)c(Nc3ncc(C(N)=O)c(Nc4ccccc4Br)n3)cc2C1 has what recorded pIC50?
A. 9.15

Q. Item COc1cc2c(cc1Nc1ncc(C(N)=O)c(Nc3cccc4c3CCN(S(C)(=O)=O)C4)n1)CN(C)CC2 has what recorded pIC50?
A. 9.82

Q. Item Cc1cccc(Nc2ncc(C(N)=O)c(Nc3cccc4c3CCNC4=O)n2)c1 has what recorded pIC50?
A. 8.58

Q. Item CS(=O)(=O)c1ccc(Nc2ncc(C(N)=O)c(Nc3cccc4c3CCNC4=O)n2)cc1 has what recorded pIC50?
A. 8.89

Q. Item COc1cc(C2CCNC2)ccc1Nc1ncc(C(N)=O)c(Nc2ccccc2Br)n1 (stereo not shown) has what recorded pIC50?
A. 8.02

Q. Item COc1cc2c(cc1Nc1ncc(C(N)=O)c(Nc3c(C)nn(C)c3C)n1)CN(C)CC2 has what recorded pIC50?
A. 9.04

Q. Item COc1cc2c(cc1Nc1ncc(C(N)=O)c(Nc3ccccc3CC(C)c3ccccc3)n1)CN(C)CC2 (stereo not shown) has what recorded pIC50?
A. 6.67

Q. Item Cc1cccc(F)c1Nc1nc(Nc2cc3c(cc2Cl)CCN(C)C3)ncc1C(N)=O has what recorded pIC50?
A. 9.21

Q. Item CC(C1CC1)n1cc(Nc2ncc(C(N)=O)c(Nc3cccc4c3CCNC4=O)n2)cn1 (stereo not shown) has what recorded pIC50?
A. 9.55

Q. Item COc1cc2c(cc1Nc1ncc(C(N)=O)c(Nc3ccccc3OC(F)F)n1)CN(C)CC2 has what recorded pIC50?
A. 10.05

Q. Item COc1cc2c(cc1Nc1ncc(C(N)=O)c(Nc3c(C)cccc3F)n1)CN(CC(C)(C)O)CC2 has what recorded pIC50?
A. 8.60

Q. Item COc1cc2c(cc1Nc1ncc(C(N)=O)c(Nc3c(F)cccc3C(F)(F)F)n1)CN(C)CC21CC1 has what recorded pIC50?
A. 9.68
